Source of measurements: patent US10266526B2

- Target or system: SMYD3 (Homo sapiens (Human))
- Assay notes: SMYD3 biochemical assay (SMYD3 enzyme assay on MEKK2 protein substrate, 3H-SAM scintillation proximity assay)
- Measurement conditions: read-out: SMYD3 Biochem IC50
- Source text: S-adenosylmethionine (SAM), S-adenosylhomocysteine (SAH), Tris, Tween20, dimethylsulfoxide (DMSO), bovine skin gelatin (BSG), and Tris(2-carboxyethyl)phosphine hydrochloride solution (TCEP) were purchased from Sigma-Aldrich at the highest level of purity possible. ^3H-SAM was purchase from American Radiolabeled Chemicals with a specific activity of 80 Ci/mmol. 384-well opaque white OptiPlates and SPA beads (Perkin Elmer, catalog # RPNQ0013) were purchased from PerkinElmer. […]
I'd appreciate it if you could supply IC50 values for the items below.

**Q:** Record lookup: for SMYD3 (Homo sapiens (Human)), what IC50 belongs to CC(NC(=O)Cc1cccnc1)C1CCN(C(=O)[C@H](C)N)CC1 (stereo partly drawn) ?
**A:** > 100 µM

**Q:** IC50 of N[C@H]1CC[C@H](NC(=O)/C=C/c2c[nH]cn2)CC1 on SMYD3 (Homo sapiens (Human))?
**A:** > 100 µM

**Q:** What IC50 appears in the records for this compound with SMYD3 (Homo sapiens (Human))? Cc1cc(C)c(C(=O)NC(C)C2CCN(C(=O)[C@H](C)N)CC2)c(=O)[nH]1 (stereo partly drawn)
**A:** > 100 µM

**Q:** # value lookup — system SMYD3 (Homo sapiens (Human)), readout IC50, item NCCC(=O)N[C@H]1CC[C@H](NC(=O)c2ccc3[nH]ccc3c2)CC1
**A:** 13.4 µM

**Q:** Find the measured IC50: item CC(NC(=O)c1cccnc1O)C1CCN(C(=O)[C@H](C)N)CC1 (stereo partly drawn) , target or system SMYD3 (Homo sapiens (Human)).
**A:** 70.4 µM

**Q:** Reported IC50 for SMYD3 (Homo sapiens (Human)), given NCCC(=O)N[C@H]1CC[C@H](NC(=O)Cc2cc(F)cc(F)c2)CC1 ?
**A:** > 100 µM

**Q:** Quick check: IC50 on SMYD3 (Homo sapiens (Human)), item N[C@H]1CC[C@H](NC(=O)c2cccnc2O)CC1 ?
**A:** > 100 µM

**Q:** Notebook: pull reported IC50 for SMYD3 (Homo sapiens (Human)), entry Nc1cccc(C(=O)N[C@H]2CC[C@H](N)CC2)n1
**A:** > 100 µM

**Q:** Request: IC50, test system SMYD3 (Homo sapiens (Human)), entry CC(NC(=O)Cc1cncnc1)C1CCN(C(=O)[C@H](C)N)CC1 (stereo partly drawn)
**A:** > 100 µM

* * *

- Target or system: SMYD3 (Homo sapiens (Human), UniProt Q9H7B4)
- Sequence (Q9H7B4 whole entry): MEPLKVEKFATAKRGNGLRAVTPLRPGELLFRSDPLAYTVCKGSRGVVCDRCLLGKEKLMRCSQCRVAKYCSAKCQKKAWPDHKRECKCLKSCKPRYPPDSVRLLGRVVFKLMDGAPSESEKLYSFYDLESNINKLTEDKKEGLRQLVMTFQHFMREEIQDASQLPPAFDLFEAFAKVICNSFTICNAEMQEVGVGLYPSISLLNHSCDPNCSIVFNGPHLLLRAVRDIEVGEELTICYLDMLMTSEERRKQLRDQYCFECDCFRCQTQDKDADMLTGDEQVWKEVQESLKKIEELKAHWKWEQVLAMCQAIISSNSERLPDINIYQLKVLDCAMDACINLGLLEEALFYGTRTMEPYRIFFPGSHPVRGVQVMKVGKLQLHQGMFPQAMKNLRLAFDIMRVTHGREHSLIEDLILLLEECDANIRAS
- Assay notes: SMYD3 cell assay (Trimethyl-MEKK2 In-Cell Western in 293T/17 cells transfected with MEKK2-flag and SMYD3)
- Type: cell-based
- Measurement conditions: Table 3A; average of n = 1 to n = 50; read-out: SMYD3 cell IC50
pIC50: −log10 of the molar value.
Decide using pIC50: a value greater than or equal to 6 is Condition met, a smaller one is Condition not met.

**Q:** Confirm if pIC50 reported for the compound CN1C(=O)Cc2cc(C(=O)N[C@H]3C[C@H]4CC[C@@H](C3)N4S(=O)(=O)N3CCC(N)CC3)c(Cl)cc21 is 6 or above.
**A:** Condition met

**Q:** Evaluate O=C1Cc2cc(C(=O)N[C@H]3C[C@H]4CC[C@@H](C3)N4S(=O)(=O)CCN3CCCC3)c(Cl)cc2N1 : pIC50 at minimum 6?
**A:** Condition met

**Q:** Reported pIC50 reaches at least 6 for CN1CCC(CS(=O)(=O)N2[C@@H]3CC[C@H]2C[C@@H](NC(=O)c2ccc4c(c2)CC(=O)N4)C3)CC1 ?
**A:** Condition met

**Q:** Is it the case that CC(C)(N)c1ccc(S(=O)(=O)N2[C@@H]3CC[C@H]2C[C@@H](NC(=O)c2ccc4c(c2)CC(=O)N4)C3)cc1 has pIC50 reaching or exceeding 6?
**A:** Condition not met

**Q:** Given the entry O=C(N[C@H]1C[C@H]2CC[C@@H](C1)N2S(=O)(=O)CC1CCNCC1)c1ccc2c(c1)OC(F)(F)O2 , answer whether its pIC50 meets or surpasses 6.
**A:** Condition not met

**Q:** Quick check, pIC50 >= 6? CN1CCC(CS(=O)(=O)N2[C@@H]3CC[C@H]2C[C@@H](NC(=O)c2ccc4c(c2)OC(F)(F)O4)C3)CC1
**A:** Condition not met

**Q:** Item NCCCS(=O)(=O)N1CCC(NC(=O)c2ccc3c(c2)CC(=O)N3)CC1 with pIC50 of 6 or above?
**A:** Condition not met

* * *

- Target or system: SMYD3 (Homo sapiens (Human), UniProt Q9H7B4)
- Assay notes: SMYD3 cell assay (Trimethyl-MEKK2 In-Cell Western in 293T/17 cells transfected with MEKK2-flag and SMYD3)
- Format: cell-based
- Measurement conditions: Table 3A; average of n = 1 to n = 50; read-out: SMYD3 cell IC50
Observation type: IC50 (µM)
// units = µM; emit number, no label

**Q:** What IC50 appears in the records for this compound with SMYD3 (Homo sapiens (Human), UniProt Q9H7B4)? CNC1CCN(S(=O)(=O)N2[C@@H]3CC[C@H]2C[C@@H](NC(=O)c2cc4c(cc2Cl)NC(=O)C4)C3)CC1 [compound 586]
**A:** 0.425

**Q:** Find IC50 (SMYD3 (Homo sapiens (Human), UniProt Q9H7B4)) for the entry NC1CCN(S(=O)(=O)N2[C@@H]3CC[C@H]2C[C@@H](NC(=O)c2cc4c(cc2Cl)NC(=O)C4)C3)CC1 [compound 579]
**A:** 1.13

**Q:** Provide value of IC50 for this record tested with SMYD3 (Homo sapiens (Human), UniProt Q9H7B4): C[C@H]1C[C@H](NC(=O)c2nnc(C3CC3)s2)CCN1S(=O)(=O)N1CCC(N)CC1 [compound 631]
**A:** 4.9

**Q:** Find the measured IC50: item C[C@@H]1CN(S(=O)(=O)N2CCC(N)CC2)CC[C@@H]1NC(=O)c1cc2c(cc1Cl)NC(=O)C2 [compound 634] , target or system SMYD3 (Homo sapiens (Human), UniProt Q9H7B4).
**A:** 0.972

**Q:** Write down the reported IC50 of O=C1Cc2cc(C(=O)N[C@H]3C[C@H]4CC[C@@H](C3)N4S(=O)(=O)CC3CCNCC3)c(Cl)cc2N1 [compound 596] , test system: SMYD3 (Homo sapiens (Human), UniProt Q9H7B4).
**A:** 2.66

**Q:** Given the entry O=C1Cc2cc(C(=O)N[C@H]3C[C@H]4CC[C@@H](C3)N4S(=O)(=O)C[C@@H]3CCCNC3)c(Cl)cc2N1 [compound 600] , what IC50 was observed with SMYD3 (Homo sapiens (Human), UniProt Q9H7B4)?
**A:** 0.728

* * *

- Target or system: SMYD2 (Homo sapiens (Human), UniProt Q9NRG4)
- Sequence (Q9NRG4 whole entry): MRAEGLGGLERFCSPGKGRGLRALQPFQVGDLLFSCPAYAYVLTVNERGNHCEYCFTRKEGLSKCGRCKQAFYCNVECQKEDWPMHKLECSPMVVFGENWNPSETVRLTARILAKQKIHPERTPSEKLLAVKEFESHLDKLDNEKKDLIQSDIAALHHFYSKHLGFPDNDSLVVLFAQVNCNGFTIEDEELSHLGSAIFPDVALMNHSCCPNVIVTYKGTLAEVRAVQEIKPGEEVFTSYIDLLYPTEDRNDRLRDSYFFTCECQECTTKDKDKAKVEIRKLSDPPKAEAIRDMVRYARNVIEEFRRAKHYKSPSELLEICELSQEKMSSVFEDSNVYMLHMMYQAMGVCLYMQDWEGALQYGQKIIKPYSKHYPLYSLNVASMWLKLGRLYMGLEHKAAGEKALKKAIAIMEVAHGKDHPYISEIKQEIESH
- Assay notes: SMYD2 biochemical assay (SMYD2 enzyme assay on peptide substrate, 3H-SAM Flashplate)
- Measurement conditions: read-out: SMYD2 Biochem IC50; IC50 values are an average of n = 1 to n = 50
Observation type: log10 of IC50 (log10 of the value in nM)
Recorded IC50 (log10, nM)

**Q:** What value of log10 of IC50 has been reported for the following compound? O=C(NC1CN(Cc2cnn(Cc3ncco3)c2)C1)c1cn(C2CC2)nn1 [compound 944]
**A:** 2.96

**Q:** Bench note: what log10 of IC50 did O=C(NC1CN(C2CCc3cc(F)ccc32)C1)c1cn(C2CC2)nn1 (centres unmarked) [compound 740] show?
**A:** 3.84

**Q:** Name the recorded log10 of IC50 for COc1ccccc1[C@@H](C)N1CC(NC(=O)c2cc(C3CC3)cnn2)C1 [compound 842] .
**A:** 2.28

**Q:** # get_value(readout='log10 of IC50', item= CC(c1cc(F)cc(Cl)c1)N1CC(NC(=O)c2cn(C3CC3)nn2)C1 (centres unmarked) [compound 714] )
**A:** 3.33

**Q:** Using the record for CCC(c1ccc(F)cc1)N1CC(NC(=O)c2cn(C3CC3)nn2)C1 (centres unmarked) [compound 694] , report its log10 of IC50.
**A:** 2.90

**Q:** Query (compound): COc1cccc(OC)c1C(C)N1CC(NC(=O)c2cn(C3CC3)nn2)C1 (centres unmarked) [compound 768] ; field requested: log10 of IC50
**A:** 3.23

**Q:** Tell me the measured log10 of IC50 of O=C(NC1CNC1)c1cn(C2CC2)nn1 [compound 657] , please.
**A:** 4.02

**Q:** Name the recorded log10 of IC50 for CC(NC(=O)c1cc(C2CC2)cnn1)C1CCCCN1 (centres unmarked) [compound 1003] .
**A:** 4.28

**Q:** Field request: log10 of IC50 | item: CNCCN1CCC(CN2CC(NC(=O)c3cn(C4CC4)nn3)C2)C1=O (centres unmarked) [compound 756]
**A:** 4.23

**Q:** Item CC(c1ccccc1OC(F)(F)F)N1CC(NC(=O)c2cn(C3CC3)nn2)C1 (centres unmarked) [compound 684] has what recorded log10 of IC50?
**A:** 3.33

**Q:** Would you mind telling me what log10 of IC50 value was observed for Cc1coc(Cn2cc(CN3CC(NC(=O)c4cn(C5CC5)nn4)C3)cn2)n1 [compound 937] ?
**A:** 2.08

**Q:** Please give the measured log10 of IC50 for this compound: COc1ccc(Cl)cc1C(C)N1CC(NC(=O)c2cn(C3CC3)nn2)C1 (centres unmarked) [compound 860]
**A:** 3.45

**Q:** What does the data say about its log10 of IC50? Entry: COc1cccc(C(C)N2CC(NC(=O)c3cc(C4CC4)cnn3)C2)c1Cl (centres unmarked) [compound 965]
**A:** 1.86

**Q:** log10 of IC50 lookup needed for CC(c1ccc(OCc2ccccc2)c(Cl)c1)N1CC(NC(=O)c2cn(C3CC3)nn2)C1 (centres unmarked) [compound 868] , thanks.
**A:** 2.97

**Q:** If you can, please state the reported log10 of IC50 value of O=C(NC1CN(Cc2cnn(Cc3ccc(Cl)cc3)c2)C1)c1cc(C2CC2)cnn1 [compound 929] .
**A:** 0.08

**Q:** I have this compound here, C[C@@H](c1ccccc1)N1CC(NC(=O)c2ncc(C3CC3)[nH]2)C1 [compound 914] , and I need its recorded log10 of IC50.
**A:** 2.86

**Q:** Report log10 of IC50 for CC(C)N1CC(NC(=O)c2cc(C3CC3)ccn2)C1 [compound 961] please.
**A:** 3.11

**Q:** Param item = CC[C@@H](c1cccc(Cl)c1)N1CC(NC(=O)c2cn(C3CC3)nn2)C1 [compound 837] ; retrieve measured log10 of IC50.
**A:** 2.53

**Q:** I have this compound here, CC(c1c(Cl)cccc1Cl)N1CC(NC(=O)c2cn(C3CC3)nn2)C1 (centres unmarked) [compound 769] , and I need its recorded log10 of IC50.
**A:** 3.08

**Q:** State the recorded log10 of IC50 for this entry: CNCc1cccc(C(C)N2CC(NC(=O)c3cn(C4CC4)nn3)C2)c1OC (centres unmarked) [compound 835]
**A:** 2.89

**Q:** Requested field: log10 of IC50. Item: CC(c1ccc(F)cc1Cl)N1CC(NC(=O)c2cn(C3CC3)nn2)C1 (centres unmarked) [compound 710]
**A:** 2.53

**Q:** Give its log10 of IC50 value. Item: CC(c1cccc(OCCO)c1Cl)N1CC(NC(=O)c2cc(C3CC3)ccn2)C1 (centres unmarked) [compound 964]
**A:** 4.02

**Q:** # lookup: log10 of IC50 of CC(c1cccc(OCCO)c1Cl)N1CC(NC(=O)c2cc(C3CC3)cnn2)C1 (centres unmarked) [compound 652]
**A:** 1.62

**Q:** Dear colleague, I am looking for the recorded log10 of IC50 of the following compound: CC(c1ccc(F)cc1)N1CC(NC(=O)c2cn(C3CC3)nn2)C1 (centres unmarked) [compound 747]
**A:** 3.28

**Q:** GET /values?readout=log10 of IC50&item= CC(O)COc1ccc(CN2CC(NC(=O)c3cn(C4CC4)nn3)C2)cc1 (centres unmarked) [compound 822]
**A:** 3.29

**Q:** Fill in: log10 of IC50 of CC(c1ccccc1Cl)N1CC(NC(=O)c2cn(C3CC3)nn2)C1 (centres unmarked) [compound 859] is ___
**A:** 2.20

**Q:** I have this compound here, CC(c1cc(Cl)ccc1Cl)N1CC(NC(=O)c2cc(C3CC3)cnn2)C1 (centres unmarked) [compound 649] , and I need its recorded log10 of IC50.
**A:** 2.15

**Q:** What does the data say about its log10 of IC50? Entry: O=C(NC1CN(C(CO)c2ccc(F)cc2)C1)c1cn(C2CC2)nn1 (centres unmarked) [compound 813]
**A:** 4.18

**Q:** State the recorded log10 of IC50 for this entry: CC(=O)Nc1ccc(COc2ccc(C(C)N3CC(NC(=O)c4cn(C5CC5)nn4)C3)cc2)cc1 (centres unmarked) [compound 1020]
**A:** 2.98

**Q:** Need log10 of IC50 of COc1cc(OCc2ccccc2)ccc1C(C)N1CC(NC(=O)c2cn(C3CC3)nn2)C1 (centres unmarked) [compound 800] , thanks.
**A:** 2.98

**Q:** Bench note: what log10 of IC50 did CC(c1cc(Cl)ccc1Cl)N1CC(NC(=O)c2cc(C3CC3)ccn2)C1 (centres unmarked) [compound 962] show?
**A:** 2.68

**Q:** I'd like to know its log10 of IC50. The compound in question is O=C(NC1CN(Cc2ccc(OCCO)cc2)C1)c1cn(C2CC2)nn1 [compound 827]
**A:** 3.14

**Q:** Quick one: log10 of IC50 for COc1cccc(C(C)N2CC(NC(=O)c3cn(C4CC4)nn3)C2)c1Cl (centres unmarked) [compound 803] ?
**A:** 1.84

**Q:** Dear colleague, I am looking for the recorded log10 of IC50 of the following compound: CC(c1ccc(-n2ccnc2)cc1)N1CC(NC(=O)c2cn(C3CC3)nn2)C1 (centres unmarked) [compound 797]
**A:** 3.20

**Q:** What measured log10 of IC50 goes with COc1ccc(Cl)c(C(C)N2CC(NC(=O)c3cn(C4CC4)nn3)C2)c1 (centres unmarked) [compound 938] ?
**A:** 2.11
